- System: SN12C renal
- assay-method-text: NCI-60 one-dose screen, 48 h
- protocol-conditions: 10 µM unless noted
About 83,000 compounds went through this panel and 20% of them were active in at least one assay; those are over-represented in the sample as a whole. Calls of active or inactive are those of the source. The calls were made as follows: active = growth percent below 10; inactive = the rest.
# valid calls are true (1) (active), false (0) (inactive); nothing else

Consider the following illustrative entries.
Cc1ccccc1[C@H]1C(C(=O)c2ccc(Cl)cc2)C2(N[C@@H]1c1ccccc1)C(=O)Nc1ccc(Cl)cc12 (some centres undefined) | true (1)
CCOC(=O)COc1c(OC)c(OC)cc2oc(-c3cccc(C(=O)Nc4ccc(Cl)cc4)c3)cc(=O)c12 | false (0)
COc1cc(C2CC(c3cc(OC)c(OC)c(OC)c3)=NN2C(C)=O)ccc1OCc1ccc(F)cc1 (centres undefined) | false (0)
COc1ccc2[nH]cc(-c3nnc(N)nc3-c3cn(C)c4ncc(Br)cc34)c2c1 | false (0)
COc1cccc(COc2ccc(NC(=O)Nc3ccc(Cl)c(C(F)(F)F)c3)cc2)c1 | false (0)

Give the logged outcome of this assay for the following molecule: COc1ccc2c(c1)c(-c1cc3nc(-c4cn(C)c5ncc(Br)cc45)cc(N)n3n1)cn2C
true (1)

Next: CCCCOc1ccc(NC(=O)c2sc3nc(C)ccc3c2N)cc1
false (0)

How about O=C(N=Nc1c(O)[nH]c2ccc(Cl)cc12)c1ccc2nc(-c3ccccc3)[nH]c2c1 ?
false (0)

Also, Cc1ccc(-c2nc(Nc3ccccc3S(N)(=O)=O)c3ccccc3n2)cc1 please.
false (0)

###

- Test system: UO-31 renal
- assay-method-text: NCI-60 one-dose screen, 48 h (100 = growth as untreated, 0 = no growth, -100 = all killed)
- protocol-conditions: 10 µM unless noted
About 83,000 compounds went through this panel and 20% of them were active in at least one assay; those are over-represented in the sample as a whole.
// reported growth per item
# unit: % | format: bare number

// below: answered molecules
Cc1sc2c(c1C)C(c1ccc(Cl)cc1)=N[C@@H](CC(=O)NCCCCCNC(=O)COc1ccc(C3CCC(=O)NC3=O)cc1)c1nnc(C)n1-2 (stereo partly drawn) | 27.8
N#Cc1c(-c2ccc(Cl)cc2)nc2n[nH]c(-c3ccc(Cl)cc3)c2c1-c1ccc(C(F)(F)F)cc1 | -1.42
CC(/C=C1\SC(=S)N(CCCC(=O)NC(CC(C)C)C(=O)O)C1=O)=C\c1ccccc1 (stereo not drawn) | 64.4
COc1c(F)ccc(C(=O)Nc2ccc3nc(NC(=O)C4CCCN(S(=O)(=O)c5ccc(C(F)(F)F)cc5)C4)sc3c2)c1F (stereo not drawn) | 55.3
C=C1CCC2C3(C)COC(c4ccc(F)cc4)OC3CCC2(C)C1C/C=C1/C(=O)OCC1O (stereo not drawn) | -90.6

Value wanted: growth (UO-31 renal) of entry O=C(COc1ccc(NC(=O)Nc2ccccc2)cc1)N=Nc1c(O)[nH]c2ccc([N+](=O)[O-])cc12
80.2

What do you have for O=C(Cn1c(/C=C/c2cccc([N+](=O)[O-])c2)nc2ccccc2c1=O)Nc1ccccc1 ?
77.4

And the next one, O=C1NC(=O)c2c1c1c3cc(Br)ccc3[nH]c1c1oc3ccc(F)cc3c21 ?
10.8

###

- Tested on: SNB-75 CNS
- assay-method-text: NCI-60 one-dose screen, 48 h (100 = growth as untreated, 0 = no growth, -100 = all killed)
- protocol-conditions: 10 µM unless noted
About 83,000 compounds went through this panel and 20% of them were active in at least one assay; those are over-represented in the sample as a whole.
reported-endpoint: growth (%)
Please give a number only; it is taken to be in %.

Nc1nc(-c2ccccc2)c(N=Nc2ccc(Cl)cc2[N+](=O)[O-])s1 | 80.1
O=C(COc1ccc(NC(=O)Nc2ccc(Cl)c(Cl)c2)cc1)N=Nc1c(O)[nH]c2ccc(Br)cc12 | 7.51
NS(=O)(=O)c1ccc(-n2cc(-c3cccc(NC(=O)c4cc(N5CCOCC5)cc(C(F)(F)F)c4)c3)nn2)cc1 | 33.1
NS(=O)(=O)c1ccc(N=Nc2c(O)n(CC(=O)Nc3ccccc3)c3ccccc23)cc1 | 42.2
N/C(=N\c1nc2ccccc2s1)NC(=O)NCCCCCCO | 20.6
CC(=O)Nc1cccc(-c2nc3cc(-c4ccc(O)cc4)ccc3n2C)c1 | 62.5
Cc1ccc(C2=NN(c3nc(-c4cc5ccccc5oc4=O)cs3)C(c3ccc(C)cc3)C2)cc1 (centres undefined) | 96.2
Cn1cc(-c2cc3nc(-c4c[nH]c5ccc(Br)cc45)cc(N)n3n2)c2ccccc21 | -64.5

Request the reported growth associated with COc1cc2c(c(OC)c1OC)C(=O)CC(c1cccc(NC(=O)c3cc(NC(=O)[C@@H](N)CO)ccc3C)c1)O2 (some centres undefined)
135

Proceed to O=C(CCN1C(=O)/C(=C/c2ccc(F)cc2)SC1=S)N1CCOCC1
98.3

Thanks! And N#Cc1c(-c2ccccc2Cl)cc(-c2c[nH]c3ccccc23)[nH]c1=O ?
25.7

Next record, please: CCCCSc1nc(NCCc2c[nH]c3ccccc23)c(C#N)c(-c2ccc(F)cc2)n1
74.2

The values you see were collected from PubChem BioAssay (NCI).
